Data origin: patent US9701685B2

Biological target: UniProt:Q00987
Sequence (Q00987 whole entry): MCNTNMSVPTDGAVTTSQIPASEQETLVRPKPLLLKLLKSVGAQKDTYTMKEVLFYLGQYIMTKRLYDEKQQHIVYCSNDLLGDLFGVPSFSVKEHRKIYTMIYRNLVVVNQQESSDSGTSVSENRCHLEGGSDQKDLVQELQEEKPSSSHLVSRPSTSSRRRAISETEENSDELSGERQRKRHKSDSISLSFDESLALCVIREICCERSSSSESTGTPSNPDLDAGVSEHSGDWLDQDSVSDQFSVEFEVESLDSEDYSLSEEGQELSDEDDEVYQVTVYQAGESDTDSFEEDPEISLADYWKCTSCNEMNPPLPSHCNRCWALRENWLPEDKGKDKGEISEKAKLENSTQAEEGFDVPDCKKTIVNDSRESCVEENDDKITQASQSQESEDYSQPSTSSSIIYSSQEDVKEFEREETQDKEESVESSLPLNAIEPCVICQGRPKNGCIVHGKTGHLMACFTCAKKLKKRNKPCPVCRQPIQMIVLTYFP
Experiment: MDM2-p53 TR-FRET Binding Assays
Conditions: MDM2 / biotin p53 peptide
IC50 for assorted molecules
endpoint.label: IC50

# molecule, value.observed
data = [
    ("COc1cc(C(N)=O)ccc1NC(=O)[C@@H]1N[C@@H](CC(C)(C)CF)[C@@]2(C(=O)Nc3cc(Cl)ccc32)C1c1cccc(Cl)c1F (single isomer, unassigned) [Example 22]", "≤ 3.6 nM"),
    ("COc1cc(C(=O)O)ccc1NC(=O)[C@@H]1N[C@@H](C[C@@H](C)C(F)(F)F)[C@@]2(C(=O)Nc3cc(Cl)ccc32)[C@H]1c1cccc(Cl)c1F [Example 27]", "≤ 3.6 nM"),
    ("COc1cc(C(=O)O)ccc1NC(=O)[C@@H]1N[C@@H](C[C@H](C)C(F)(F)F)[C@@]2(C(=O)Nc3cc(Cl)ccc32)[C@H]1c1cccc(Cl)c1F [Example 65]", "≤ 3.6 nM"),
    ("COc1cc(C(=O)O)ccc1NC(=O)[C@@H]1N[C@@H](CC(C)(C)CF)[C@@]2(C(=O)Nc3cc(Cl)ccc32)[C@H]1c1cccc(Cl)c1F", "≤ 3.6 nM"),
    ("COc1cc(C(N)=O)ccc1NC(=O)[C@@H]1N[C@@H](CC(C)(C)CF)[C@@]2(C(=O)Nc3cc(Cl)ccc32)C1c1cccc(Cl)c1F (mixture of isomers) [Example 20]", "≤ 3.6 nM"),
    ("COc1cc(C(N)=O)ccc1NC(=O)[C@@H]1N[C@@H](CC2(CF)CC2)[C@@]2(C(=O)Nc3cc(Cl)ccc32)[C@H]1c1cccc(Cl)c1F", "≤ 7.2 nM"),
    ("COc1cc(C(N)=O)ccc1NC(=O)[C@@H]1N[C@@H](C[C@@H](C)C(F)(F)F)[C@@]2(C(=O)Nc3cc(Cl)ccc32)[C@H]1c1cccc(Cl)c1F (racemic) [Example 13]", "≤ 7.2 nM"),
    ("COC(=O)c1ccc(NC(=O)[C@@H]2N[C@@H](CC3(CF)CC3)C3(C(=O)Nc4cc(Cl)ccc43)[C@H]2c2cccc(Cl)c2F)c(OC)c1 (some centres unmarked)", "≤ 7.2 nM"),
    ("COc1cc(C(=O)O)ccc1NC(=O)[C@@H]1N[C@@H](CC2(CF)CC2)[C@@]2(C(=O)Nc3cc(Cl)ccc32)[C@H]1c1cccc(Cl)c1F", "≤ 7.2 nM"),
    ("CCOC(=O)c1ccc(NC(=O)[C@@H]2N[C@@H](C[C@@H](C)C(F)(F)F)[C@@]3(C(=O)Nc4cc(Cl)ccc43)[C@H]2c2cccc(Cl)c2F)c(OC)c1", "≤ 7.2 nM"),
    ("COc1cc(C(=O)O)ccc1NC(=O)[C@@H]1N[C@@H](CC(C)(C)CF)[C@@]2(C(=O)Nc3cc(Cl)ccc32)C1c1cccc(Cl)c1F (mixture of isomers)", "≤ 3.6 nM"),
]
